Consider the following compounds; for each one, report its TGI.
System: MDA-MB-435
assayInfo: NCI tumour cell line growth inhibition, 48 h

# lookup: TGI of O=C1c2ccccc2C(=O)c2c(NCC(O)CO)ccc(NCC(O)CO)c21 (stereo not drawn)
> 100 µM

Note, next up: "CCN(CC)CCNc1ccc2nnn3c4ccc(OCCN(CC)CC)cc4c(=O)c1c23"
> 100 µM

Then what about the compound O=C1C2SC34c5c2c2ccccc2n5CCC3CCCN14 (stereo not drawn) ?
> 100 µM

Thanks! And "CCOc1ncn(-c2ccc(NC(=S)Nc3ncccn3)cc2)n1" ?
> 100 µM

Same thing, different compound: CCOC(=O)CCC(NC(=O)Cc1ccc(Nc2nc3cc(F)c(F)cc3nc2C(=O)OCC)cc1)C(=O)OCC (stereo not drawn)
> 100 µM

Then this compound: "O=C1Sc2cc3ccccc3cc2C(=O)Sc2ccc(Br)cc21"
13.4 µM

Same read-out for "CC1(C)CC(=O)C(C=NC(=S)c2ccccc2)=C(O)C1" ?
> 100 µM

Also need CCOC(=O)C(C#N)C1=CC(=O)C(=O)c2ccc(OC)cc21 (stereo not drawn) , thanks.
35.4 µM

Further, for "CC(=O)Nc1sc(Br)cc1S(=O)(=O)c1ccc(Cl)cc1" ?
> 100 µM

Next record, please: "Cc1ccc(S(=O)(=O)Nc2ccccc2C=O)cc1"
34.9 µM

Same question, "COc1cccc(F)c1C(=O)c1cnc(NC2CCN(S(C)(=O)=O)CC2)nc1N" this time
> 25 µM

Next record, please: "COc1cc(Nc2ncccc2C(=O)NCc2cn(Cc3cccc(Oc4ccccc4)c3)nn2)cc(OC)c1"
5.43 µM

Thanks! And "Cc1ccnc2[nH]c(-c3ccc4ccccc4c3)cc(=O)c12" ?
0.453 µM
